# tested system: PEX5-PEX14 complex (biotin-coupled PEX5 peptide, His-tagged T. brucei PEX14) (Trypanosoma brucei brucei, UniProt Q38CL4)
# Sequence (Q38CL4 1-366, one chain of several): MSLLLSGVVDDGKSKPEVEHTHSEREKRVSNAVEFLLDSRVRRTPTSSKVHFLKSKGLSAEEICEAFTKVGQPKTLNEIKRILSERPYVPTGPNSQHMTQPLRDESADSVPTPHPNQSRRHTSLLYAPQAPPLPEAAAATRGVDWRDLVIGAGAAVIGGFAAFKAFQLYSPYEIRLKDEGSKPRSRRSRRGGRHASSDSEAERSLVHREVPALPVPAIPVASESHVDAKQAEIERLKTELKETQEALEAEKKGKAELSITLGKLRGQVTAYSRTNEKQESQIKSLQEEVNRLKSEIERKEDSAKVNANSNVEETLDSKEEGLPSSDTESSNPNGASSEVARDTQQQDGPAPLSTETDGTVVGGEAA
# experiment: biochemical
# Type: binding
# assay context: 30 nM PEX5, 30 nM PEX14; quadruplicate; read-out: AlphaScreen EC50 [μM] (±SD)
# Description: The assay uses two types of beads: donor beads are coupled with streptavidin, and acceptor beads are coupled with an anti His-tag antibody. Upon excitation with light of a wavelength of 680 nm the donor beads produce reactive oxygen species that travel in solution only for a limited distance. […] The raw data were fitted to four parameter sigmoidal curves by Origin software and EC50 values calculated. […]
endpoint: EC50 (µM)
Write the answer as a number in µM, unit excluded.

Prompt: Consider the compound CC(NC(=O)c1nn(CCO)c2c1CN(Cc1cccc3c1OCO3)CC2)c1ccccc1 (stereo not shown) and give its measured EC50.
Completion: 151

Prompt: Next up: `O=C(NCc1cccc2ccccc12)c1nn(CCO)c2c1CN(Cc1cccc3cccnc13)CC2`
Completion: 53.8

Prompt: Check O=C(NCc1ccccc1)c1nn(CCO)c2c1CN(CC1=CC(=O)C3C=C(Cl)C=CC3O1)CC2 (stereo not shown) too.
Completion: 132

Prompt: Entry `Cc1nc2sccn2c1CN1CCc2c(c(C(=O)NCc3ccccc3)nn2CCO)C1` please
Completion: 171

----------
Consider the following molecules; for each one, report its pIC50.
# Test system: T. brucei brucei bloodstream form parasites (strain Lister 427)
# experiment: Antitrypanosomal activity assay (resazurin; FIG. 2)
# Type: cell-based
# assay context: Trypanosoma brucei; 66 h + 6 h resazurin
# reply with the number alone; pIC50 is -log10 of concentration in mol/L

Prompt: Please tell me: pIC50 of `COc1ccc(CN2CCc3c(c(C(=O)NCc4cccc5ccccc45)nn3Cc3ccccc3)C2)c2ccccc12` , system T. brucei brucei bloodstream form parasites (strain Lister 427)?
Completion: 5.59

Prompt: What would you report for `Cn1nc(C(=O)NCc2ccccc2)c2c1CCN(Cc1ccc(-c3ccccc3)cc1)C2` ?
Completion: 5.17

Prompt: Consider next the molecule `O=C(NCc1cccc2ccccc12)c1nn(CCO)c2c1CN(Cc1ccc(-c3ccccc3)cc1)CC2` in the same way.
Completion: 5.43

Prompt: Further, for `O=C(NCc1cccc2ccccc12)c1nn(CCO)c2c1CN(Cc1ccc(F)c3ccccc13)CC2` ?
Completion: 5.23

Prompt: Now this one: `COc1ccc(CN2CCc3c(c(C(=O)NCc4cccc5[nH]ccc45)nn3CCO)C2)c2ccccc12`
Completion: 5.25

Prompt: And what about the molecule `COc1ccc(CN2CCc3c(c(C(=O)NCc4cccc5ccccc45)nn3C3CCC3)C2)c2ccccc12` ?
Completion: 5.73

Prompt: `COc1ccc(CN2CCc3c(c(C(=O)NCc4cccc5ccccc45)nn3C3CCCC3)C2)c2ccccc12` ?
Completion: 5.63

Prompt: Input `COc1ccc(CN2CCc3c(c(C(=O)NCc4cccc5cccnc45)nn3CCO)C2)c2ccccc12`
Completion: 5.15

Prompt: Could you do the same for `O=C(NCc1ccccc1)c1nn(-c2ccccc2)c2c1CN(Cc1c[nH]c3ccccc13)CC2` , please?
Completion: 5.10

Prompt: Also need `COc1ccc(CN2CCc3c(c(C(=O)NCc4cccc5ccccc45)nn3CCN)C2)c2c1CCCC2` , thanks.
Completion: 7.30

Prompt: # repeat for `COc1ccc(CN2CCc3c(c(C(=O)NCc4cc(F)cc5ccccc45)nn3CCO)C2)c2ccccc12`
Completion: 5.54

Prompt: How about `O=C(NCc1ccccc1)c1nn(CCO)c2c1CN(Cc1cc3ccccc3c3ccccc13)CC2` ?
Completion: 5.18

Prompt: Queued: `Cn1nc(C(=O)NCc2ccccc2)c2c1CCN(Cc1ccccc1)C2`
Completion: 4.35

Prompt: Note, next up: `NCCn1nc(C(=O)NCc2cccc3ccccc23)c2c1CCN(Cc1ccc(Cl)cc1)C2`
Completion: 6.74

Prompt: And then `O=C(NCc1cccc2ccccc12)c1nn(CCO)c2c1CN(Cc1cccc(-c3ccccc3)c1)CC2` , what is it?
Completion: 5.26

Prompt: Input `COc1ccc2cc(CN3CCc4c(c(C(=O)NCc5cccc6ccccc56)nn4CCO)C3)ccc2c1`
Completion: 5.41
